All figures here come from PubChem BioAssay (NCATS).

# Test system: CP265
# procedure summary: qHTS profiling for inhibitors of Plasmodium falciparum proliferation (AID 504749); note: nearly all actives have a fitted effect of over 60% in size
# test context: P. falciparum in erythrocytes, SYBR Green DNA, 72 h; series mostly up to 28.7 µM
Records with an inconclusive call do not appear. The source made the active and inactive calls. Calls come from the whole dose curve; as a rule, active = well fitted inhibition curve with a large enough effect; inconclusive = small, poorly fitted or top-dose-only effect; inactive = flat fitted curve, though single readings scatter.
Classes used: active, inactive

* CC=CC1=C(C(=O)O)N2C(=O)[C@H](NC(=O)[C@H](N)c3ccc(O)cc3)[C@@H]2SC1 | inactive
* O=c1[nH]c(=O)n(C2CCCO2)cc1F (configuration not stated) | inactive
* CC[C@H]1CN2CCc3cc(OC)c(OC)cc3[C@H]2C[C@@H]1C[C@@H]1NCCc2cc(OC)c(OC)cc21 | active
* CN1c2cc(O)c(N=NC(N)=O)cc2CC1S(=O)(=O)O (configuration not stated) | inactive
* COC(=O)C[C@](O)(CCCC(C)(C)O)C(=O)O[C@@H]1C(OC)=C[C@]23CCCN2CCc2cc4c(cc2[C@H]13)OCO4 | active
* COc1c(N2C[C@@H]3CCCN[C@H]3C2)c(F)cc2c(=O)c(C(=O)O)cn(C3CC3)c12 | inactive
* O=C(O)CO.[NH2-].[NH2-].[Pt+2] | inactive

###

# Tested on: HaCat
# procedure summary: Cytotoxic Profiling of Annotated Libraries Using Quantitative High-Throughput Screening (AID 1296008); note: nearly all actives have a fitted effect of over 60% in size
# test context: Five cell lines viability, CellTiter-Glo ATP luminescence, 48-72 h
# Experimental: Cell-based phenotypic screening is a commonly used approach to discover biological pathways, novel drug targets, chemical probes and high-quality hit-to-lead molecules. […] A pintool (Kalypsys) was used to transfer 23 nL of compound solution to the 1536-well assay plates. […] Plates were left at room temperature for 10 min before imaging the ATP-coupled luminescence using a ViewLux microplate imager (PerkinElmer, Waltham, MA).
Records with an inconclusive call do not appear. Calls of active or inactive are those of the source. The call rests on the fitted dose curve; in most records, active means well fitted inhibition curve with a large enough effect; inconclusive means small, poorly fitted or top-dose-only effect; inactive means flat fitted curve, though single readings scatter.
Classes used: true (1) = active, false (0) = inactive

* CCOc1ccccc1OCCNC(C)Cc1ccc(OC)c(S(N)(=O)=O)c1 (stereo not given) | false (0)
* Nc1cccc(-c2cc3c(Oc4cccc(O)c4)ncnc3[nH]2)c1 | true (1)
* COC(=O)Nc1nc2ccc(C(=O)c3ccc(F)cc3)cc2[nH]1 | false (0)
* COc1cc(C)c(Sc2cnc(NC(=O)c3ccc(CNC(C)C(C)C)cc3)s2)cc1C(=O)N1CCN(C(C)=O)CC1 (stereo not given) | true (1)
* CC1(O)CC(c2nc(-c3ccc4ccc(-c5ccccc5)nc4c3)c3c(N)nccn23)C1 (stereo not given) | false (0)
* Cn1c(=O)n(-c2ccc(C(C)(C)C#N)cc2)c2c3cc(-c4cnc5ccccc5c4)ccc3ncc21 | false (0)
* O=c1[nH]nc(Sc2ncc([N+](=O)[O-])s2)n1-c1ccc2c(c1)OCCO2 | true (1)
* CN(C)c1nc(Cc2ccc(NC(=O)c3ccc4ccccc4c3)cc2)nc(Cl)c1CC(=O)O | false (0)
* Cc1c(CN2CCN(S(C)(=O)=O)CC2)sc2c(N3CCOCC3)nc(-c3cnc(N)nc3)nc12 | true (1)
* CC(C)[C@H](C(=O)Nc1ccc(C(=O)NO)cc1)c1ccccc1 | true (1)

###

# procedure summary: qHTS of pediatric cancer cell lines to identify multiple opportunities for drug repurposing: Confirmatory screen for Rh18 cells (AID 1347125);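 note: potency is the fitted concentration of half-maximal effect; cells exposed to compound for 48 h; nearly all actives have a fitted effect of over 55% in size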
# test context: Rh18 rhabdomyosarcoma cells, viability; series mostly up to 45.9 µM
Records with an inconclusive call do not appear. Calls of active or inactive are those of the source. Calls follow the shape of the dose curve; as a rule, active = well fitted cell-killing curve with a large enough effect; inconclusive = small, poorly fitted or top-dose-only effect, or effect the other way; inactive = flat fitted curve, though single readings scatter.
measurement type: Potency

• COc1cc2c(Oc3ccc(NC(=O)C4(C(=O)Nc5ccc(F)cc5)CC4)cc3F)ccnc2cc1OCCCN1CCOCC1 = 7.37 µM (active)
• CC(C)[C@H](C(=O)Nc1ccc(C(=O)NO)cc1)c1ccccc1 = 0.827 µM (active)
• Nc1ncnc2c1c(-c1cnc3[nH]ccc3c1)nn2C1CCCC1 = 2.93 µM (active)
• Nc1ccn([C@@H]2O[C@H](CO)[C@H](O)C2(F)F)c(=O)n1 = 2.93 µM (active)
• CC(=O)Nc1nc(C)c(-c2ccc(Cl)c(S(=O)(=O)NCCO)c2)s1 = 11.7 µM (active)

###

# assay system: Ubiquitin carboxyl-terminal hydrolase 1 (Homo sapiens)
# procedure summary: Inhibitors of USP1/UAF1: Pilot qHTS (AID 504865); note: nearly all actives have a fitted effect of over 35% in size
# test context: purified USP1/UAF1, Ub-rhodamine cleavage fluorescence; series mostly up to 114 µM
# From the text: Deubiquitinating enzymes (DUBs) are a class of enzymes that can cleave isopeptide bond formed between the C-terminal carboxylate of ubiquitin and a lysine side-chain amino group on the target protein. Among them, ubiquitin specific proteases (USPs) constitute the largest DUB family. […]
Inconclusive results are not listed. Activity calls are given as the source filed them. The call rests on the fitted dose curve; in most records, active means well fitted inhibition curve with a large enough effect; inconclusive means small, poorly fitted or top-dose-only effect; inactive means flat fitted curve, though single readings scatter.
Classes used: active, inactive

* O=C(O)CO.[NH2-].[NH2-].[Pt+2] | inactive
* COC(=O)C1=C(C)NC(C)=C(C(=O)OCCN2CCN(C(c3ccccc3)c3ccccc3)CC2)C1c1cccc([N+](=O)[O-])c1 (stereo not drawn) | inactive
* O=c1c2ccccc2nc2n1CCc1c-2[nH]c2ccccc12 | inactive
* COc1cc(C(=O)NS(=O)(=O)c2ccccc2C)ccc1Cc1cn(C)c2ccc(NC(=O)OC3CCCC3)cc12 | active
* O=c1[nH]c(=O)n(C2CCCO2)cc1F (stereo not drawn) | inactive
* Nc1ccc(S(=O)(=O)Nc2ncccn2)cc1 | inactive
* CC1(C)O[C@@H]2C[C@@H]3[C@H]4C[C@@H](F)C5=CC(=O)C=C[C@]5(C)[C@@]4(F)[C@@H](O)C[C@]3(C)[C@]2(C(=O)CO)O1 | inactive
* C[C@H]1C[C@@H]2[C@@H]([C@@H](O)C[C@@]3(C)[C@H]2CC[C@]3(O)C(=O)CO)[C@@]2(C)C=CC(=O)C=C12 | inactive

###

# procedure summary: Quantitative High-Throughput drug screen in 47 multiple myeloma cell lines against the NCATS MIPE library collection: KMS34_JCRB cell viability assay (AID 1918985); note: nearly all actives have a fitted effect of over 40% in size
# test context: KMS34 myeloma viability, CellTiter-Glo ATP luminescence, 48 h; series mostly up to 45.8 µM
Results filed as inconclusive are left out. Calls of active or inactive are those of the source. Calls come from the whole dose curve; as a rule, active = well fitted cell-killing curve with a large enough effect; inconclusive = small, poorly fitted or top-dose-only effect, or effect the other way; inactive = no such curve, though single readings can be large or run the other way.
Classes used: active, inactive

* O=c1c2ccccc2nc2n1CCc1c-2[nH]c2ccccc12 | inactive
* Nc1cc(C(F)(F)F)c(-c2cc(N3CCOCC3)nc(N3CCOCC3)n2)cn1 | active
* Cc1cc(Nc2cc(N3CCN(C)CC3)nc(Sc3ccc(NC(=O)C4CC4)cc3)n2)n[nH]1 | active
* CC(C)CC(=O)Nc1n[nH]c2c1CN(C(=O)C1CCN(C)CC1)C2(C)C | active
* O=C(O)CCCc1c[nH]c2ccccc12 | inactive
* CC1(C)OC2=C(C(=O)c3ccccc3C2=O)[C@H](NCc2ccccc2)[C@H]1O | active
* CC=C1NC(=O)[C@H]2CSSCCC=C[C@H](CC(=O)N[C@H](C(C)C)C(=O)N2)OC(=O)[C@H](C(C)C)NC1=O | active
* C=CCn1c(=O)c2cnc(Nc3ccc(N4CCN(C)CC4)cc3)nc2n1-c1cccc(C(C)(C)O)n1 | active
* O=c1[nH]nc(Sc2ncc([N+](=O)[O-])s2)n1-c1ccc2c(c1)OCCO2 | active
* NC(=O)c1c(OCc2c(F)cc(Br)cc2F)nsc1NC(=O)NCCCCN1CCCC1 | active
* OCc1ccc(-c2ccc(-c3ccc(CO)s3)o2)s1 | active
* CN(c1ncccc1CNc1nc(Nc2ccc3c(c2)CC(=O)N3)ncc1C(F)(F)F)S(C)(=O)=O | active
* Cc1cc(Nc2cc(NC(=O)c3c(Cl)cccc3Cl)ccn2)nc(N)n1 | active
* CCn1nnc2c(N3CCOCC3)nc(-c3ccc(NC(=O)Nc4ccc(C(=O)N5CCN(C)CC5)cc4)cc3)nc21 | active
* COc1ccc(-c2cc3c(C)nc(N)nc3n(C3CCC(OCCO)CC3)c2=O)cn1 (stereo not given) | active
* O=C(CCCCCCNC(=O)c1cnc(N(c2ccccc2)c2ccccc2)nc1)NO | active
* CC(C)(O)c1cc2nc(-c3cnc(N)nc3)nc(N3CCOCC3)c2s1 | active
* CCS(=O)(=O)c1cccc(-c2cc(C(=O)NC3CCN(C)CC3)c(C)c3[nH]c4ncc(C)cc4c23)c1 | active
* Nc1nc(-c2nn(Cc3ccccc3F)c3ncccc23)nc(N)c1N1CCOCC1 | inactive
* CC[C@@H]1C(=O)N(C)c2cnc(Nc3ccc(C(=O)NC4CCC(N5CCN(CC6CC6)CC5)CC4)cc3OC)nc2N1C(C)C (stereo not given in full) | active

###

# procedure summary: Cell Proliferation Assay against the TMD8 Cell Line (AID 651645);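 note: cells exposed to compound for 48 h before reading; 100% = DMSO and 0% = 9.2 µM bortezomib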
# test context: TMD8 DLBCL cell line proliferation/viability; at 46.1 µM (top of the series)
measurement type: viability (% of control) (%)

- Cn1cncc1[C@@](N)(c1ccc(Cl)cc1)c1ccc2c(c1)c(-c1cccc(Cl)c1)cc(=O)n2C: 1.01
- C=CCn1c(=O)c2cnc(Nc3ccc(N4CCN(C)CC4)cc3)nc2n1-c1cccc(C(C)(C)O)n1: 11.5
- C1Cc2[nH]nc(-c3nn[nH]n3)c2C1: 103
- Cn1c2cc(S(C)=O)sc2c2cnn(Cc3cccc(N)c3)c(=O)c21 (stereo not drawn): 110
- C1=CCOCc2cc(ccc2OCCN2CCCC2)Nc2nccc(n2)-c2cccc(c2)OCC1: 61.1
- CC1=C(CO)C(=O)O[C@@H]([C@@H](C)[C@H]2CC[C@H]3[C@@H]4C[C@H]5O[C@]56[C@@H](O)C=CC(=O)[C@]6(C)[C@@H]4CC[C@]23C)C1: 0.616
- CN1CCN(c2ccc3nc(-c4c(N)c5c(F)cccc5[nH]c4=O)[nH]c3c2)CC1: -0.299
- COc1cc2c(Oc3ccc(NC(=O)C4(C(=O)Nc5ccc(F)cc5)CC4)cc3F)ccnc2cc1OCCCN1CCOCC1: 2.25
- N#Cc1c(O)c2c(-c3ccc(-c4ccccc4O)cc3)csc2[nH]c1=O: 112
- CC(C)=CCCC(C)=CCCC(C)=CCSc1ccccc1C(=O)O: 100
- Cc1ccc(-c2ncn(-c3ccc(Nc4nccc(-c5cccc(N6CCOCC6)c5)n4)cc3)n2)cn1: 0.9
- CN1CCC(CNc2ccc3ncc(-c4cccc(OC(F)(F)F)c4)n3n2)CC1: 4.73
- CC(=O)SC[C@@H](C)C(=O)N1CCC[C@H]1C(=O)N[C@@H](Cc1ccccc1)C(=O)O: 104
- Cc1cnc(Nc2ccc(F)cc2Cl)nc1-c1c[nH]c(C(=O)N[C@H](CO)c2cccc(Cl)c2)c1: -0.93
- CC(=O)OCC(=O)[C@@]1(O)[C@H](C)C[C@H]2[C@@H]3C=C(C)C4=Cc5c(cnn5-c5ccccc5)C[C@]4(C)[C@@H]3[C@@H](O)C[C@@]21C: 3.02
- Nc1ccccc1NC(=O)c1ccc(CNC(=O)OCc2cccnc2)cc1: 4.84
- CC1(C)OC2=C(C(=O)c3ccccc3C2=O)[C@H](NCc2ccccc2)[C@H]1O: 5.62
- CNC(=O)c1cc(Oc2ccc(NC(=O)Nc3cc(C(C)(C)C)nn3-c3ccc4ncccc4c3)c(F)c2)ccn1: 2.72
